# Assay System: human μ opiate receptor (Homo sapiens, UniProt P35372)
# Construct: purchased PerkinElmer Life Sciences, Zaventem, Belgium RB-HOM; host or cells: CHO-K1 cells (membrane preparation)
# Sequence (P35372 whole entry): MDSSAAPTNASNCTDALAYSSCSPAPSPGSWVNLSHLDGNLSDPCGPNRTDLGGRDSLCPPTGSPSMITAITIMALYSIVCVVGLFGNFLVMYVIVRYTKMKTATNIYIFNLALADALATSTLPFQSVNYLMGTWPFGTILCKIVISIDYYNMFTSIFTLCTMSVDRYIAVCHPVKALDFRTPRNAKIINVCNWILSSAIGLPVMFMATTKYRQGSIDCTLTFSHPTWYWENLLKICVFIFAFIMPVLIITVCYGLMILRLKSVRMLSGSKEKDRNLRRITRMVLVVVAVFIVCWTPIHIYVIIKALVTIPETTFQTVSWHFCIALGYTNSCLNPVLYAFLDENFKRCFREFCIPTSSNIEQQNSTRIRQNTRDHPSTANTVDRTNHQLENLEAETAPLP
# Method Description: Affinity for the human μ opiate receptor ([3H]-naloxone displacement, CHO-K1 receptor membrane preparation, SPA)
# Type: binding
# Condition Details: test concentration of 1 μM
Provide the reported μ (binding on the μ opioid receptor, % inhibition) of each item.

Input line: Item CN(C)C(c1cccc(F)c1)C1CCC(CNC(=O)COCCC2CCN(S(=O)(=O)c3ccccc3)CC2)CC1 (centres unmarked) [Example 333] has what recorded μ (binding on the μ opioid receptor, % inhibition)?
Output line: 65%

Input line: Fill blank: measured μ (binding on the μ opioid receptor, % inhibition) of the molecule COc1cc(C)c(S(=O)(=O)N2CCC(CCOCC(=O)NCCC3CCC(C(c4ccc(Cl)cc4)N(C)C)CC3)CC2)c(C)c1C (centres unmarked) [Example 561] is ____.
Output line: 26%

Input line: What value of measured μ (binding on the μ opioid receptor, % inhibition) is listed for CN(C)C(c1ccc(F)cc1)C1CCC(CNC(=O)COC2CCCN(S(=O)(=O)c3ccccc3)C2)CC1 (centres unmarked) [Example 488] ?
Output line: 40%

Input line: For the molecule shown here, COc1ccc(S(=O)(=O)N(C)CCOCC(=O)NCC2CCC(C(c3cccc(F)c3)N(C)C)CC2)cc1 (centres unmarked) [Example 340] , give the reported μ (binding on the μ opioid receptor, % inhibition).
Output line: 69%

Input line: Can you look up the measured μ (binding on the μ opioid receptor, % inhibition) of COc1ccc(S(=O)(=O)N(C)CCOCC(=O)NC2CCC(C(c3cccs3)N(C)C)CC2)cc1OC (centres unmarked) [Example 206] for me?
Output line: 78%

Input line: Can you share its μ (binding on the μ opioid receptor, % inhibition)? I mean this molecule: COc1cc(C)c(S(=O)(=O)N(CCOCC(=O)NCCC2CCC(C(c3ccc(F)cc3)N(C)C)CC2)Cc2ccccc2)c(C)c1C (centres unmarked) [Example 554]
Output line: 28%

Input line: I am curious: what μ (binding on the μ opioid receptor, % inhibition) value has been reported for CN(C)C(c1ccccc1)C1CCC(NC(=O)COCCN(C)S(=O)(=O)c2ccc(Cl)cc2)CC1 (centres unmarked) [Example 589] ?
Output line: 25%

Input line: Consider the molecule CN(C)C(c1ccc(F)cc1)C1CCC(CCNC(=O)COCCN(C)S(=O)(=O)c2c(Cl)cccc2Cl)CC1 (centres unmarked) [Example 285] and give its measured μ (binding on the μ opioid receptor, % inhibition).
Output line: 69%

Input line: Query: μ (binding on the μ opioid receptor, % inhibition); subject: CN(C)C(c1ccc(F)cc1)C1CCC(NC(=O)COC2CCN(S(=O)(=O)c3ccccc3)CC2)CC1 (centres unmarked) [Example 408]
Output line: 48%

Input line: What μ (binding on the μ opioid receptor, % inhibition) value was documented for this molecule, COc1cc(C)c(S(=O)(=O)N2CCCC(OCC(=O)NCC3CCC(C(c4ccc(Cl)cc4)N(C)C)CC3)C2)c(C)c1C (centres unmarked) [Example 449] ?
Output line: 46%

Input line: # μ (binding on the μ opioid receptor, % inhibition) lookup, item CN(C)C(c1cccc(F)c1)C1CCC(NC(=O)COCCN2CCN(S(=O)(=O)c3ccccc3)CC2)CC1 (centres unmarked) [Example 364]
Output line: 58%

Input line: Reported μ (binding on the μ opioid receptor, % inhibition) for Cc1ccc(S(=O)(=O)N(C)CCOCC(=O)NC2CCC(C(c3ccc(F)cc3)N(C)C)CC2)cc1 (centres unmarked) [Example 448] : what is it?
Output line: 41%

Input line: Please report the recorded μ (binding on the μ opioid receptor, % inhibition) for COc1ccc(S(=O)(=O)N(C)CCOCC(=O)NCCC2CCC(C(c3ccc(Cl)cc3)N(C)C)CC2)cc1 (centres unmarked) [Example 460] .
Output line: 52%

Input line: μ (binding on the μ opioid receptor, % inhibition) for CCN(CCOCC(=O)NCC1CCC(C(c2ccccc2)N(C)C)CC1)S(=O)(=O)c1c(C)cc(OC)c(C)c1C (centres unmarked) [Example 231] ?
Output line: 82%

Input line: Returns the measured μ (binding on the μ opioid receptor, % inhibition) for the input molecule. Input: COc1cc(C)c(S(=O)(=O)N2CCC(OCC(=O)NC3CCC(C(c4ccc(F)cc4)N(C)C)CC3)C2)c(C)c1 (centres unmarked) [Example 441]
Output line: 49%

Input line: Entry CN(C)C(c1ccccc1)C1CCC(NC(=O)COC2CCN(S(=O)(=O)c3ccc(Cl)cc3Cl)C2)CC1 (centres unmarked) [Example 596] has what μ (binding on the μ opioid receptor, % inhibition)?
Output line: 84%

Input line: Give its μ (binding on the μ opioid receptor, % inhibition) value. Item: CN(C)C(c1ccc(F)cc1)C1CCC(CCNC(=O)COC2CCN(S(=O)(=O)c3ccccc3)C2)CC1 (centres unmarked) [Example 530]
Output line: 26%

Input line: Which μ (binding on the μ opioid receptor, % inhibition) reading was recorded for the molecule COc1ccc(S(=O)(=O)N2CCCC2COCC(=O)NCC2CCC(C(c3ccc(Cl)cc3)N(C)C)CC2)cc1 (centres unmarked) [Example 351] ?
Output line: 63%

Input line: Please report the recorded μ (binding on the μ opioid receptor, % inhibition) for COc1cc(C)c(S(=O)(=O)N(CCOCC(=O)NCCC2CCC(C(c3ccc(Cl)cc3)N(C)C)CC2)Cc2ccccc2)c(C)c1C (centres unmarked) [Example 576] .
Output line: 15%

Input line: μ (binding on the μ opioid receptor, % inhibition) lookup needed for COc1cc(C)c(S(=O)(=O)N2CCC(OCC(=O)NCCC3CCC(C(c4ccc(Cl)cc4)N(C)C)CC3)C2)c(C)c1 (centres unmarked) [Example 492] , thanks.
Output line: 44%

Input line: May I ask what μ (binding on the μ opioid receptor, % inhibition) has been recorded for COc1ccc(S(=O)(=O)N2CCCC2COCC(=O)NCC2CCC(C(CCc3ccccc3)N(C)C)CC2)cc1 (centres unmarked) [Example 572] ?
Output line: 29%

Input line: Consider the molecule CN(C)C(c1ccc(F)cc1)C1CCC(CCNC(=O)COC2CCN(S(=O)(=O)c3cccc(C(F)(F)F)c3)C2)CC1 (centres unmarked) [Example 466] and give its measured μ (binding on the μ opioid receptor, % inhibition).
Output line: 30%

Input line: Quick check: μ (binding on the μ opioid receptor, % inhibition) of CCN(CCOCC(=O)NCCC1CCC(C(c2ccc(F)cc2)N(C)C)CC1)S(=O)(=O)c1c(C)cc(OC)c(C)c1C (centres unmarked) [Example 413] ?
Output line: 55%
